I'd be grateful if you could share measured pIC50 for these entries.
biological target: UniProt:P03951; test: Factor XIa inhibition assay utilizing a fluorophore-quencher pair peptide substrate (FLINT); format: biochemical; conditions: kinetic reads at 5 min intervals over 30 min; 30 min preincubation; read-out: FXIa (KIN) IC50
Sequence (P03951 388-625 limits assumed): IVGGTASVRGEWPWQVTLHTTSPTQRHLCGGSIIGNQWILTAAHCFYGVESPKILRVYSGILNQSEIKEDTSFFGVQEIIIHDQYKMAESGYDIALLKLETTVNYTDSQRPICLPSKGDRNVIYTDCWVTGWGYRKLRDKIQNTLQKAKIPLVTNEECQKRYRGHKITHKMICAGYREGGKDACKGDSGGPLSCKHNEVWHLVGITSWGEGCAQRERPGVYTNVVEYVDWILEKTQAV
Sequence (P03951 19-387 partner limits assumed): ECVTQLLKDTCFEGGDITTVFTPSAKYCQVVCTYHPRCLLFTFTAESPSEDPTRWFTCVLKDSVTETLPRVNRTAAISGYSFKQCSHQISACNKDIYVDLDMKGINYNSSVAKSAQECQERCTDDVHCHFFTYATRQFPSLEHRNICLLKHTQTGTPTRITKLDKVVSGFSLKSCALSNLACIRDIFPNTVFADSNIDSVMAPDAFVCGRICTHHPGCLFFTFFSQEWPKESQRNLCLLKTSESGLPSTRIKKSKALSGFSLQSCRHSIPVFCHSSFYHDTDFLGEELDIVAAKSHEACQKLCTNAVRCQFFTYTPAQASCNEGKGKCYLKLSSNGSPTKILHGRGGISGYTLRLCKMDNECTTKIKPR
Give bare numbers, as −log10 of the molar value.

{"COMPOUND": "[O-][n+]1cc(-c2c(-n3cnnn3)ccc(Cl)c2F)ccc1C(Cc1ccc(F)cc1)n1cnc(-c2ccncc2)c1 (stereo not shown) [M5]", "TARGET_OR_SYSTEM": "UniProt:P03951", "pIC50": 9.15}

Now consider the entry below.
Need pIC50, item COC(=O)Nc1ccc(-c2cn(C(CC3CC3)c3ccc(-c4c(-n5cnnn5)ccc(Cl)c4F)c[n+]3[O-])nn2)cc1 (single isomer, unassigned) [T4]
9.00
